Test summary: Hydrogen peroxide scavenging assay
Details: Comp. Conc. 250 µg/mL; mean ± S.E.M, n = 3
Value kind: H2O2 free radical scavenging ability (%)
Give bare numbers, in %.

smiles_entry=N#Cc1ccncc1.N#Cc1ccncc1.O=C([O-])Cc1ccccc1Cl.O=C([O-])Cc1ccccc1Cl.O=C([O-])Cc1ccccc1Cl.O=C([O-])Cc1ccccc1Cl.[Cu+2].[Cu+2] value_kind="H2O2 free radical scavenging ability" value_measured=85.50

Please find the next molecule below.
Input line: Query (molecule): N#Cc1cccnc1.N#Cc1cccnc1.O=C([O-])Cc1cccc(Cl)c1.O=C([O-])Cc1cccc(Cl)c1.O=C([O-])Cc1cccc(Cl)c1.O=C([O-])Cc1cccc(Cl)c1.[Cu+2].[Cu+2] ; field requested: H2O2 free radical scavenging ability
Output line: 73.67

Provenance of the data: paper PMC10224544
